# STUDY TARGET: hPPARγ (Homo sapiens, UniProt P37231)
# Sequence (P37231 238-505): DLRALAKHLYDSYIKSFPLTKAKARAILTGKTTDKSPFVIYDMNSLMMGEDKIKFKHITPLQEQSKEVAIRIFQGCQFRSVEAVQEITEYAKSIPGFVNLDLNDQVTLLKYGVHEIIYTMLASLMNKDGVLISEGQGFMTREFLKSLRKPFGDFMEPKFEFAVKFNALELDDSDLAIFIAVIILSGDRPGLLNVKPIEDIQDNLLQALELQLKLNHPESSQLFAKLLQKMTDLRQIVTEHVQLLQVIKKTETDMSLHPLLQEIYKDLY
# TEST PROTOCOL: PPAR/Gal4 chimera luciferase reporter transactivation assay in transiently transfected Cos-7 cells (hPPARγ)
# Type: cell-based
# CONDITION SET: read-out: hPPARγ EC50; Cos-7 cells, 24 h, tested 0.001 to 10 µM
pEC50: −log10 of the molar value.

{"COMPOUND": "CCOC(=O)CCC(C)=CCCC1(C)CCc2cc(OCc3ccc(F)cc3)ccc2O1 (stereo not shown)", "pEC50": 6.40}

---

# STUDY TARGET: hPPARα (Homo sapiens)
# TEST PROTOCOL: PPAR/Gal4 chimera luciferase reporter transactivation assay in transiently transfected Cos-7 cells (hPPARα)
# Type: cell-based
# CONDITION SET: COS-7, read-out: hPPARα Efficacy (%)
Emax vs 40%: at or above is 1 (yes), below is 0 (no).

{"COMPOUND": "C/C(=C\\CCC1(C)CCc2cc(OCC(N)=O)cc(C)c2O1)CC/C=C(\\C)C(=O)OCc1ccccc1 (stereo not shown)", "ASSIGNED CLASS": "0 (no)"}
{"COMPOUND": "C/C(=C\\CCC1(C)CCc2cc(OCc3ccccc3)cc(C)c2O1)CC/C=C(\\C)C(=O)OCc1ccccc1 (stereo not shown)", "ASSIGNED CLASS": "0 (no)"}
{"COMPOUND": "CCOC(=O)/C(=C/CC/C(C)=C/CCC1(C)CCc2cc(OCc3ccc(F)cc3)ccc2O1)OCC (stereo not shown)", "ASSIGNED CLASS": "1 (yes)"}
{"COMPOUND": "COC(=O)C(OC(=O)/C(C)=C/CC/C(C)=C/CCC1(C)CCc2cc(OC)cc(C)c2O1)C(=O)OC (stereo not shown)", "ASSIGNED CLASS": "1 (yes)"}
{"COMPOUND": "COc1cc(C)c2c(c1)CCC(C)(CC/C=C(\\C)CC/C=C(\\C)C(=O)O)O2 (stereo not shown)", "ASSIGNED CLASS": "1 (yes)"}
{"COMPOUND": "CCCOC(=O)/C(C)=C/CC/C(C)=C/CCC1(C)CCc2cc(O)cc(C)c2O1 (stereo not shown)", "ASSIGNED CLASS": "1 (yes)"}

---

# STUDY TARGET: hPPARα (Homo sapiens, UniProt Q07869)
# Sequence (Q07869 167-468): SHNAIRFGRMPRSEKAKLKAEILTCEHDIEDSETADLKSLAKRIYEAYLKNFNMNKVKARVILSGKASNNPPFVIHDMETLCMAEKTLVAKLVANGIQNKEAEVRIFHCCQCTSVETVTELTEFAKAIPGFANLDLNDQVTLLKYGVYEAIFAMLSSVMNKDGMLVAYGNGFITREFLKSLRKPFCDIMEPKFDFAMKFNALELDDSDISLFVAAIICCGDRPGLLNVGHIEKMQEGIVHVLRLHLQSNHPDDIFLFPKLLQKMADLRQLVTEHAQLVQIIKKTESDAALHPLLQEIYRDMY
# TEST PROTOCOL: PPAR/Gal4 chimera luciferase reporter transactivation assay in transiently transfected Cos-7 cells (hPPARα)
# Format: cell-based
# CONDITION SET: read-out: hPPARα EC50; Cos-7 cells, 24 h, tested 0.001 to 10 µM
pEC50: −log10 of the molar value.

{"COMPOUND": "CCOC(=O)CCC(C)=CCCC1(C)CCc2cc(OCc3ccc(F)cc3)ccc2O1 (stereo not shown) [Compound 9]", "pEC50": 6.52}
